Tested on: UO31
Assay: Efficacy screening assay
Format: cell-based
Conditions: UO31, kidney; 72 h; read-out: EC50
metric: EC50 (nM)
Please give a number only; it is taken to be in nM.

Input line: Item under review: `CN(C)Cc1ccc(S(=O)(=O)n2ccc(/C=C/C(=O)NO)c2)cc1` . Reported EC50?
Output line: 70

###

Tested on: UMUC3
Assay: Efficacy screening assay
Format: cell-based
Conditions: UMUC3, bladder; 72 h; read-out: EC50
Method: The experiment was performed by Oncolead GmbH & Co. KG (Karlsfeld , Germany), based on a standardized screening procedure . Cell lines were purchased directly from the ATCC, NCI and DSMZ cell line c ollections. […] The optimal seeding density for each cell line was determined to ensure exponential growth for the duration of the experiment. All cells growing without anti-cancer agents were sub-conﬂuent by the end of the treatment, as determined by visual inspection. […]
metric: pEC50
Just the number, please; pEC50 means minus log10 of the concentration in mol/L.

Input line: Entry under review: CN(C)Cc1ccc(S(=O)(=O)n2ccc(/C=C/C(=O)NO)c2)cc1 [resminostat, Resminostat] . Reported pEC50?
Output line: 5.49

###

Tested on: 5637 (HTB-9)
Assay: Efficacy screening assay
Type: cell-based
Details: bladder, 72 h, read-out: EC50
metric: EC50 (nM)
Could you give me the number in nM? Just the number is fine.

Input line: EC50 for CN(C)Cc1ccc(S(=O)(=O)n2ccc(/C=C/C(=O)NO)c2)cc1 [resminostat, Resminostat] ?
Output line: 1130

Values from paper PMC8100298
